Data provenance: patent US20150315218A1

protocol_notes: IV and PO pharmacokinetic studies of prodrug salts (Iab, Ibb, Icb) in the monkey, with historical parent data
Assay type: in vivo, cynomolgus monkeys
condition_description: male, cynomolgus monkey, plasma, po, 4.9 mg/kg; read-out: Tmax
quantity_kind: Tmax (min)
Numbers only, in min.

Query: Value lookup for Tmax; key = COc1cnc(-n2cnc(C)n2)c2[nH]cc(C(=O)C(=O)N3CCN(C(=O)c4ccccc4)CC3)c12 [IVc]
Response: 55.2

* * *

Can you tell me Tmax for the items I'm about to list?
protocol_notes: IV and oral rat PK (MAP) studies A, B, C of phosphate prodrugs and parent studies A1, B1, C1
Type: in vivo, Sprague-Dawley rats
condition_description: male, Sprague-Dawley, rat, plasma, po, 5 mg/kg, rats, after PO prodrug dosing equivalent to 5 mpk of parent
Answers are plain numbers, in h.

Here is how some compounds turned out for Tmax.
Query: Report Tmax for COc1cnc(-n2cnc(C)n2)c2[nH]cc(C(=O)C(=O)N3CCN(C(=O)c4ccccc4)CC3)c12 please.
Response: 0.8

Query: Now this one: COc1ncc(OC)c2c(C(=O)C(=O)N3CCN(C(=O)c4ccccc4)CC3)c[nH]c12
Response: 1.7

New cases:
Query: What value of Tmax has been reported for the following compound? O=C(C(=O)N1CCN(C(=O)c2ccccc2)CC1)c1c[nH]c2c(-n3ccnn3)ncc(F)c12
Response: 1.1

* * *

protocol_notes: Single-dose toxicokinetic and tolerability study of prodrugs in dogs
Assay type: in vivo, dog
condition_description: female, dog, plasma, po, 92 mg/kg, dog 3201F, day 1, Ibb 92 mg/kg QD dry-filled capsules; read-out: T1/2 (converted)
quantity_kind: half-life (h)
Answers are plain numbers, in h.

Query: Fill in the blank: the reported half-life of O=C(C(=O)N1CCN(C(=O)c2ccccc2)CC1)c1c[nH]c2c(-n3ccnn3)ncc(F)c12 is ____.
Response: 2.3

* * *

protocol_notes: Oral dose escalation study in rats (Study D of Ica; historical Study E of IVc)
Type: in vivo
condition_description: male, Sprague-Dawley, rat, plasma, po, 200 mg/kg
quantity_kind: Cmax (µM)
Give bare numbers, in µM.

Query: Returns the measured Cmax for the input compound. Input: COc1cnc(-n2cnc(C)n2)c2[nH]cc(C(=O)C(=O)N3CCN(C(=O)c4ccccc4)CC3)c12
Response: 281

* * *

protocol_notes: Single dose study of Compound IVa in healthy human volunteers (capsule/solution, fasted/fed; first-in-human)
Format: in vivo
condition_description: human, plasma, oral, 800 mg, Fasting, n = 6
quantity_kind: Cmax (µM)
Answers are plain numbers, in µM.

Query: Using the record for COc1ncc(OC)c2c(C(=O)C(=O)N3CCN(C(=O)c4ccccc4)CC3)c[nH]c12 , report its Cmax.
Response: 3.7

* * *

protocol_notes: IV and PO pharmacokinetic studies of prodrug salts (Iab, Ibb, Icb) in the monkey, with historical parent data
Type: in vivo, cynomolgus monkeys
condition_description: cynomolgus monkey, plasma; monkey, historical parent, IV 1 mg/kg; read-out: AUCtot (μM · hr), IV
quantity_kind: AUC (µM·h)
Answers are plain numbers, in µM·h.

Query: Suppose we examine the compound COc1ncc(OC)c2c(C(=O)C(=O)N3CCN(C(=O)c4ccccc4)CC3)c[nH]c12 [IVa] ; what AUC value has been reported?
Response: 9.2

* * *

protocol_notes: MAP studies G and H: PO dosing of diester IIa and monoester II′a in rats
Format: in vivo, rat
condition_description: male, Sprague-Dawley, rat, plasma, po, 5 mg/kg, IVa following PO dosing of diester IIa
Protocol: Compound IVa was administered in a polyethylene glycol 400 (PEG400)/ethanol (EtOH) solution (90/10, v/v) unless noted otherwise. Plasma and tissue samples were collected and stored at −20° C. until analysis. Male Sprague-Dawley rats (300-350 g, Hilltop Lab Animals, Inc., Scottdale, Pa. 15683) with cannulas implanted in the jugular vein and/or bile duct were used in the pharmacokinetic studies of compound IVa. Rats were fasted overnight in PO studies. […]
quantity_kind: Tmax (h)
Answers are plain numbers, in h.

Query: Return reported Tmax; argument: COc1ncc(OC)c2c(C(=O)C(=O)N3CCN(C(=O)c4ccccc4)CC3)c[nH]c12
Response: 2.7
